FYI, the data here is from patent US12534457B2.

test system: Ba/F3 cells expressing EGFR Del19/C797S (EGFR DC); assay: Proliferation inhibitory activity, Ba/F3 cells expressing EGFR Del19/C797S (CellTiter-Glo); format: cell-based; conditions: Mus musculus, BaF3, 72 hours of compound treatment
quantity_measured: GI50

compound	tested_system	quantity_measured	result
COc1cc(N2CCC(N3CCN(C)CC3)CC2)ccc1Nc1cc(N2OCC[C@@H]2c2cc(F)ccc2F)ncn1 [Example 30]	Ba/F3 cells expressing EGFR Del19/C797S (EGFR DC)	GI50	< 0.05 µM
FC(F)(F)c1cccc(Nc2cc(N3OCC[C@@H]3c3ccccc3)ncn2)c1 [Example 73]	Ba/F3 cells expressing EGFR Del19/C797S (EGFR DC)	GI50	0.05 to 0.5 µM
CCN1CC2CC(C1)N2C1CCN(c2ccc(Nc3cc(N4OCC[C@@H]4c4cccc(F)c4F)ncn3)c(OC)c2)CC1 [Example 220]	Ba/F3 cells expressing EGFR Del19/C797S (EGFR DC)	GI50	< 0.05 µM
COc1cc(N2CCC(N3CCN(C)CC3)CC2)ccc1Nc1cc(N2OCC[C@@H]2c2ccc(C)nc2)ncn1 [Example 38]	Ba/F3 cells expressing EGFR Del19/C797S (EGFR DC)	GI50	0.05 to 0.5 µM

# ---- query compound ----
GI50 for COc1nc(N2CCC(N3CCN(C)CC3)CC2)c(-c2cnn(C)c2)cc1Nc1cc(N2OCC[C@@H]2c2ccccc2)ncn1 [Example 147] ?
< 0.05 µM
